Overview of reported TGI across a group of compounds:
- Tested on: A549 NSCLC
- PROTOCOL: NCI tumour cell line growth inhibition, 48 h

Recorded results for 5 compounds are shown here.
COc1ccc(NC(=O)CC/C(CC(=O)c2ccccc2Cl)=N\Nc2nnc(C)n2N)cc1    > 100 µM
COc1cc(COC(=O)N2CCCCC2C(=O)O)c([N+](=O)[O-])cc1OC (configuration not stated)    > 100 µM
CC1(C)CC(=O)C(CC(C(=O)C(=O)Nc2cc(C(F)(F)F)ccc2Cl)C(=O)c2ccco2)C(=O)C1 (configuration not stated)    > 100 µM
O=C1CSC(=S)N1c1ccc(F)cc1F    > 100 µM
COc1ccc(S(=O)(=O)N2CCN(C(=O)OCc3ccccc3)CC2C(=O)NO)cc1 (configuration not stated)    > 25 µM

Given the compound CC1C(=O)C(C)C(c2cccs2)N(N=O)C1c1cccs1 (configuration not stated) , what is its reported TGI?
> 100 µM

Given the compound "COc1ccc2nc3cccc([N+](=O)[O-])c3c(NCCN(CCO)CCO)c2c1" , what is its reported TGI?
0.403 µM

Given the compound "O=C(CCCCC(=O)N/N=C\c1ccccc1Cl)N/N=C\c1ccccc1Cl" , what is its reported TGI?
> 100 µM

Given the compound "Cc1c(C)c(S(=O)(=O)N(CCCCCN)OCCCN)c(C)c2c1OC(C)(C)CC2" , what is its reported TGI?
> 100 µM

Given the compound Cn1cc(C2=C(c3c4n(c5ccccc35)CC(CN)C4)C(=O)NC2=O)c2ccccc21 (configuration not stated) , what is its reported TGI?
10.9 µM

Given the compound "Cc1ccc(S(=O)(=O)c2c(N)c3nccn3c3nc4ccccc4nc23)cc1" , what is its reported TGI?
> 100 µM

Given the compound "CCCCCCNC(=O)c1cc(C#Cc2cc(OC)ccc2OC)ccc1OC" , what is its reported TGI?
> 100 µM

Given the compound "COc1ccc(C(=O)/C=C2\c3ccccc3C(=O)N2C)cc1" , what is its reported TGI?
> 100 µM

Given the compound "O=C(N1CCOCC1)C1(c2ccccc2)CCNCC1" , what is its reported TGI?
> 100 µM

Given the compound "Brc1ccccc1/C=C\C1(c2ccccc2)OCCO1" , what is its reported TGI?
32.8 µM

Given the compound "O/N=C(\C=N\O)c1ccc2c(c1)Sc1ccccc1O2" , what is its reported TGI?
> 100 µM

Given the compound "Cc1nc2c(O)cccc2c(=O)[nH]1" , what is its reported TGI?
> 1000 µM

Given the compound "c1ccc(-c2nc3sccn3n2)cc1" , what is its reported TGI?
> 100 µM

Given the compound "Cn1c(=O)nc2n(-c3ccc(F)cc3)c3ccccc3nc-2c1=O" , what is its reported TGI?
48.6 µM
